# EXPERIMENTAL DETAILS: Protection index, ratio of TD50 for neurotoxicity in po dosed mouse to ED50 for po dosed maximal electroshock induced seizure mouse model
# Format: toxicity, organism-based
# COND: in vivo, read-out: Ratio TD50/ED50
REPORTED METRIC: selectivity ratio
Lab note: write the figure by itself, no unit.

// selectivity ratio lookup, key: `Cc1ccccc1/C=C/C(=O)N[C@@H](C)CO` 6.51

---

# Test system: Mus musculus
# EXPERIMENTAL DETAILS: Neurotoxicity in ip dosed mouse assessed as induction of motor impairment by measuring time to peak effect by rotarod method
# Format: toxicity, organism-based
# COND: in vivo
I'd be grateful if you could share measured Time for these entries.
Give the quantity in h, number only.

// Time lookup, key: `O=C(/C=C/c1ccc(Cl)cc1)N[C@H]1CC[C@H](O)CC1` 6

// Time lookup, key: `CC[C@H](CO)NC(=O)/C=C/c1ccc(Cl)cc1` 0.25

// Time lookup, key: `CC[C@@H](CO)NC(=O)/C=C/c1ccc(Cl)cc1` 0.25

// Time lookup, key: CC(O)CNC(=O)/C=C/c1ccc(Cl)cc1 (stereo unspecified) 0.25

// Time lookup, key: CCC(CO)NC(=O)/C=C/c1ccc(Cl)cc1 (stereo unspecified) 0.25

// Time lookup, key: `Cc1ccccc1/C=C/C(=O)N[C@@H](C)CO` 0.5

---

I'd be grateful if you could share measured TD50 for these entries.
# EXPERIMENTAL DETAILS: Neurotoxicity in ip dosed Sprague-Dawley rat assessed as behavioral change
# Format: toxicity, organism-based
# COND: in vivo
Give the quantity in mg/kg, number only.

// TD50 lookup, key: `Cc1ccccc1/C=C/C(=O)N[C@@H](C)CO` 103

// TD50 lookup, key: CCC(CO)NC(=O)/C=C/c1ccc(Cl)cc1 (stereo not drawn) 79.5

// TD50 lookup, key: CC(O)CNC(=O)/C=C/c1ccc(Cl)cc1 (stereo not drawn) 69.8

---

# EXPERIMENTAL DETAILS: Neurotoxicity in po dosed Sprague-Dawley rat assessed as behavioral change
# Type: toxicity, organism-based
# COND: in vivo
REPORTED METRIC: TD50

// TD50 lookup, key: CC(O)CNC(=O)/C=C/c1ccc(Cl)cc1 (stereo not drawn) > 500 mg/kg

// TD50 lookup, key: CCC(CO)NC(=O)/C=C/c1ccc(Cl)cc1 (stereo not drawn) 277 mg/kg

// TD50 lookup, key: `Cc1ccccc1/C=C/C(=O)N[C@@H](C)CO` > 500 mg/kg

---

# EXPERIMENTAL DETAILS: Protection index, ratio of TD50 for neurotoxicity in ip dosed mouse to ED50 for ip dosed maximal electroshock induced seizure mouse model
# Assay type: toxicity, organism-based
# COND: in vivo, read-out: Ratio TD50/ED50
REPORTED METRIC: selectivity ratio
Lab note: write the figure by itself, no unit.

// selectivity ratio lookup, key: `CC[C@H](CO)NC(=O)/C=C/c1ccc(Cl)cc1` 3.85

// selectivity ratio lookup, key: `CC[C@@H](CO)NC(=O)/C=C/c1ccc(Cl)cc1` 1.3

// selectivity ratio lookup, key: CCC(CO)NC(=O)/C=C/c1ccc(Cl)cc1 (stereo unspecified) 3.65

// selectivity ratio lookup, key: `Cc1ccccc1/C=C/C(=O)N[C@@H](C)CO` 3.53

// selectivity ratio lookup, key: CC(O)CNC(=O)/C=C/c1ccc(Cl)cc1 (stereo unspecified) 3.24

---

I'd be grateful if you could share measured Time for these entries.
# Test system: Mus musculus
# EXPERIMENTAL DETAILS: Anticonvulsant activity in ip dosed pentylenetetrazole induced seizure mouse model assessed as no observable episode of clonic convulsion of at least 5 secs by measuring time to peak effect
# Type: functional
Give the quantity in h, number only.

// Time lookup, key: `Cc1ccccc1/C=C/C(=O)N[C@@H](C)CO` 0.25

// Time lookup, key: CC(O)CNC(=O)/C=C/c1ccc(Cl)cc1 (centres undefined) 0.5

// Time lookup, key: `O=C(/C=C/c1ccc(Cl)cc1)N[C@H]1CC[C@H](O)CC1` 2

// Time lookup, key: CCC(CO)NC(=O)/C=C/c1ccc(Cl)cc1 (centres undefined) 0.25

---

# EXPERIMENTAL DETAILS: Neurotoxicity in po dosed mouse
# Assay type: toxicity, organism-based
# COND: in vivo
REPORTED METRIC: TD50 (mg/kg)
Give the quantity in mg/kg, number only.

// TD50 lookup, key: `Cc1ccccc1/C=C/C(=O)N[C@@H](C)CO` 282

---

# EXPERIMENTAL DETAILS: Protection index, ratio of TD50 for neurotoxicity in ip dosed Sprague-Dawley rat model to ED50 for ip dosed maximal electroshock induced seizure Sprague-Dawley rat model
# Assay type: toxicity, organism-based
# COND: in vivo, read-out: Ratio TD50/ED50
I'd be grateful if you could share measured selectivity ratio for these entries.
Lab note: write the figure by itself, no unit.

// selectivity ratio lookup, key: CCC(CO)NC(=O)/C=C/c1ccc(Cl)cc1 (stereo not drawn) 3.74

// selectivity ratio lookup, key: CC(O)CNC(=O)/C=C/c1ccc(Cl)cc1 (stereo not drawn) 1.66

// selectivity ratio lookup, key: `Cc1ccccc1/C=C/C(=O)N[C@@H](C)CO` 6.3

---

# EXPERIMENTAL DETAILS: Displacement of [35S]dATPaS from rat cerebral cortex P2Y receptor measured after 60 mins by scintillation counting method
REPORTED METRIC: pIC50
Please treat pIC50 as minus the base-10 logarithm of the molar concentration.

// pIC50 lookup, key: Nc1ncnc2c1ncn2[C@H]1C[C@H](O)[C@@H](COP(O)(=S)OP(=O)(O)OP(=O)(O)O)O1 (stereo partly specified) 7.54

---

# EXPERIMENTAL DETAILS: Protection index, ratio of TD50 for neurotoxicity in po dosed Sprague-Dawley rat model to ED50 for po dosed maximal electroshock induced seizure Sprague-Dawley rat model
# Format: toxicity, organism-based
# COND: in vivo, read-out: Ratio TD50/ED50
REPORTED METRIC: selectivity ratio
Lab note: write the figure by itself, no unit.

// selectivity ratio lookup, key: CCC(CO)NC(=O)/C=C/c1ccc(Cl)cc1 (stereo not drawn) 5.92

// selectivity ratio lookup, key: CC(O)CNC(=O)/C=C/c1ccc(Cl)cc1 (stereo not drawn) 6.47

---

# Tested on: Mus musculus
# EXPERIMENTAL DETAILS: Neurotoxicity in mouse assessed as induction of motor impairment at 100 mg/kg, ip measured at 0.5 hrs post dose by rotarod method
# Format: toxicity, organism-based
# COND: in vivo
REPORTED METRIC: Activity

Check out these entries, answers already filled in.
CC[C@@H](CO)NC(=O)/C=C/c1ccc(Cl)cc1 : Toxic
CC[C@@H](CO)NC(=O)/C=C/c1ccc(C)cc1 : Non-Toxic
CC[C@H](CO)NC(=O)/C=C/c1ccc(Cl)cc1 : Toxic
Cc1ccccc1/C=C/C(=O)N[C@H](C)CO : Non-Toxic

// Activity lookup, key: CCC(O)CNC(=O)/C=C/c1ccc(C)cc1 (configuration not stated) Non-Toxic

// Activity lookup, key: Cc1ccc(/C=C/C(=O)NCC(C)O)cc1 (configuration not stated) Non-Toxic

// Activity lookup, key: `CC[C@@H](CO)NC(=O)/C=C/c1ccccc1C` Non-Toxic

---

# EXPERIMENTAL DETAILS: Protection index, ratio of TD50 for neurotoxicity in ip dosed Sprague-Dawley rat model to ED50 for ip dosed pentylenetetrazole induced seizure Sprague-Dawley rat model
# Type: toxicity, organism-based
# COND: in vivo, read-out: Ratio TD50/ED50
REPORTED METRIC: selectivity ratio

// selectivity ratio lookup, key: `Cc1ccccc1/C=C/C(=O)N[C@@H](C)CO` 4.18

// selectivity ratio lookup, key: CC(O)CNC(=O)/C=C/c1ccc(Cl)cc1 (stereo not drawn) 1.25

// selectivity ratio lookup, key: CCC(CO)NC(=O)/C=C/c1ccc(Cl)cc1 (stereo not drawn) 1.23

---

# System: Mus musculus
# EXPERIMENTAL DETAILS: Anticonvulsant activity in ip dosed maximal electroshock induced seizure mouse model assessed as suppression in hindlimb tonic extension
# Format: functional
I'd be grateful if you could share measured ED50 for these entries.
Give the quantity in mg/kg, number only.

// ED50 lookup, key: CC(O)CNC(=O)/C=C/c1ccc(Cl)cc1 (stereo unspecified) 55.6

// ED50 lookup, key: `O=C(/C=C/c1ccc(Cl)cc1)N[C@H]1CC[C@H](O)CC1` 186

// ED50 lookup, key: `Cc1ccccc1/C=C/C(=O)N[C@@H](C)CO` 42.6

// ED50 lookup, key: `CC[C@@H](CO)NC(=O)/C=C/c1ccc(Cl)cc1` 43.3

// ED50 lookup, key: `CC[C@H](CO)NC(=O)/C=C/c1ccc(Cl)cc1` 27.3

// ED50 lookup, key: CCC(CO)NC(=O)/C=C/c1ccc(Cl)cc1 (stereo unspecified) 53.8
